Assay: Solubility Study of Compound 1 Form 1 (solvent aliquot addition, visual observation)
Assay type: physicochemical
Details: organic solvent or mixture, thermodynamic from solid; solvent THF; read-out: Solubility at ambient temperature
MEASURE: solubility

[Q] Please give the measured solubility for this compound: CC(=O)Nc1cc(Oc2cnc3nc(Nc4cc(C(F)(F)F)cn(C)c4=O)n(C)c3c2C#N)ccn1 [Compound 1 Form 1]
[A] 1000 to 4900 µg/mL

====

Assay: Kinetic solubility of Compound 1 Lot II, visually estimated at ambient temperature
Assay type: physicochemical
Conditions: THF, organic solvent or mixture, thermodynamic from solid, THF, left at ambient temperature overnight; read-out: Solubility
MEASURE: solubility

[Q] Endpoint output: solubility of CC(=O)Nc1cc(Oc2cnc3nc(Nc4cc(C(F)(F)F)cn(C)c4=O)n(C)c3c2C#N)ccn1 . Value?
[A] ≥ 1000 µg/mL
